The values you see were collected from the Immune Epitope Database (IEDB).

experimentalTarget: HLA-A*02:16
assayText: IEDB peptide-MHC binding, purified MHC/direct/fluorescence; filed as Kd, often an IC50 or EC50 that approximates it; bounds were set here for any values at or beyond the usual limits of such assays
details: source organism: Rickettsia sibirica 246

{"sequenceChain": "SVANIDRIK", "Kd": "≥ 20 µM"}

----------
experimentalTarget: HLA-A*24:02
assayText: IEDB peptide-MHC binding, purified MHC/direct/fluorescence; filed as Kd, often an IC50 or EC50 that approximates it; bounds were set here for any values at or beyond the usual limits of such assays
details: source organism: Influenza A virus (A/camel/Mongolia/1982(H1N1))

{"sequenceChain": "ELDEIGEDV", "Kd": "≥ 20 µM"}
